tested on: 2nd wave of aggregation induced by ADP (human PRP); test: Thrombocyte function in vitro: 2nd wave of aggregation by ADP (human PRP); format: cell-based; details: Iloprost; human PRP; stimulant ADP
pIC50: −log10 of the molar value.
assayMetric: pIC50

Observed pIC50, 2nd wave of aggregation induced by ADP (human PRP), CC#CCC(C)[C@H](O)/C=C/[C@@H]1[C@H]2C/C(=C/CCCC(=O)O)C[C@H]2C[C@H]1O (stereo partly shown) : 9.19 to 9.59
